Data provenance is PubChem BioAssay (NCI).

System: LXFL 529 NSCLC
Run description: NCI tumour cell line growth inhibition, 48 h
Recorded endpoint: TGI (µM)
Just the number in µM, nothing appended.

CC[C@@]1(O)C(=O)OCc2c1cc1n(c2=O)Cc2cc3cc(Cl)ccc3nc2-1 :: 2.22

Below: the item to evaluate.
For reference, reported TGI for `CCCCCCCCCCC(=O)CCCCCCC(=O)O` stands at 40.1

====

Tested on: DLD-1 colon
Run description: NCI tumour cell line growth inhibition, 48 h
In this section we review reported TGI values for a set of molecules.

These recorded examples may help you get a feel for the data.
CC(=O)Nc1ccc(-c2nnc(SCC(=O)Nc3cccc(C)c3)o2)cc1 :: 23.1 µM
O=C(NN1C(=O)C(Cl)C1c1cccc(O)c1)c1ccccc1O (stereo not given) :: > 100 µM
CC(=O)OC1C[C@H]2C(OC(=O)c3ccccc3)C3C4(OC(C)=O)COC4C[C@H](OC(C)=O)[C@@]3(C)C(OC(C)=O)[C@H](OC(C)=O)C(=C1C)C2(C)C (stereo not given in full) :: > 100 µM
C#CCN(N=O)C(=O)NC(CCCCNC(=O)OCc1ccccc1)C(=O)OCc1ccccc1 (stereo not given) :: 42.7 µM
CCCCC(C(=O)C(=O)Nc1ccc(C)cc1C)C(=O)C(C)C (stereo not given) :: > 100 µM

Summary: `Cc1noc2cccc(O)c12` , DLD-1 colon, TGI = > 100 µM

====

Test system: RXF 393 renal
Run description: NCI tumour cell line growth inhibition, 48 h
Binary classification by TGI, with 50 µM as an inclusive lower bound for class 1; all other cases are class 0.

Cc1cc(=O)oc2c(C3=NN(C=O)C(c4ccccc4)C3)c(O)ccc12 (stereo unspecified) :: class 1
CC12NC(=C(C#N)C#N)C(C#N)=C3NC(N)=C(C#N)C(=C31)Oc1ccccc12 (stereo unspecified) :: class 0
Cc1cccc2c(C3=C(c4cn(C)c5ccccc45)C(=O)NC3=O)cn(C)c12 :: class 0
O=C(O)C1C2C=CC(O2)C1C(=O)NCc1cccnc1 (stereo unspecified) :: class 1
O=C(COc1ccc(/C=C2\Oc3ccc4ccccc4c3C2=O)cc1)c1ccc([N+](=O)[O-])cc1 :: class 1
COC(=O)C(C(=O)C(=O)Nc1ccc(C)cc1)c1nc2ccc([N+](=O)[O-])cc2[nH]c1=O (stereo unspecified) :: class 1
O=c1oc2cc(O)ccc2c2[nH]c3cc(O)ccc3c12 :: class 0
O=C1Cc2c(-c3ccccc3)cc(-c3ccccc3)nc2-c2ccccc2N1 :: class 1

Does `O=S(=O)(O)c1ccc2c(N=Nc3cccc4ccccc34)c(O)ccc2c1` have a reported TGI of at least 50 µM?
class 1

Does the molecule O=CC(OC(=O)c1ccccc1)C(OC(=O)c1ccccc1)C(COC(c1ccccc1)(c1ccccc1)c1ccccc1)OC(=O)c1ccccc1 (stereo unspecified) have recorded TGI that is 50 µM or more?
class 0

====

Here, each record is paired with measured TGI data.
Test system: SK-OV-3 ovarian
Run description: NCI tumour cell line growth inhibition, 48 h

Answered cases to consult:
C#CCN(N=O)C(=O)NC(CCCCNC(=O)OCc1ccccc1)C(=O)OCc1ccccc1 (stereo not drawn) :: > 100 µM
CC(=N/NC(=S)N1CCCCCC1)/C(C)=N\NC(=S)N1CCCCCC1 :: 8.85 µM
O=[N+]([O-])c1ccc(CSc2nn(Cc3ccc([N+](=O)[O-])cc3)cc3ncnc2-3)cc1 :: > 100 µM
COC(=O)C1OC(O[C@H]2CC[C@]3(C)[C@H]4CC=C5[C@@H]6CC(C)(C)CC[C@]6(C(=O)OC)CC[C@@]5(C)[C@]4(C)CC[C@H]3C2(C)C)C(O)C(O)C1O (stereo partly drawn) :: 34.8 µM
C[C@@H](C1CC[C@H]2[C@@H]3[C@@H]4O[C@@H]4[C@@]4(O)CC=CC(=O)[C@]4(C)[C@H]3C[C@H](O)[C@]12C)[C@H]1C[C@]2(C)O[C@]2(C)C(=O)O1 (stereo partly drawn) :: > 100 µM
O=C(Nc1ccccc1[N+](=O)[O-])/C(=N/Nc1cccc(Cl)c1)c1c(O)c2ccccc2oc1=O :: > 100 µM
COc1ccc(C(c2ccccc2C(=O)O)c2ccc(OC)c3ccccc23)c2ccccc12 :: 45.1 µM
CCOC(=O)NN(C(=O)OCC)c1ccc(N=Nc2ccc(OC)cc2)n1C :: > 100 µM

Value sought: TGI, system SK-OV-3 ovarian, item `CC1=C(C(=O)NNC(=O)Cc2ccccc2)CC(C(=O)NNC(=O)Cc2ccccc2)=C(C)N1` . Result: > 100 µM

With SK-OV-3 ovarian as the test system, `O=C(Nc1ccc(OS(=O)(=O)c2ccc(F)cc2)cc1)C12CC3CC(CC(C3)C1)C2` showed TGI of 47.3 µM

TGI value, target or system SK-OV-3 ovarian, for `Cc1nnc(C[C@@H]2C=C(c3ccc(Cl)cc3)c3ccccc3-n3c(C)nnc32)o1` : 12 µM

// assay SK-OV-3 ovarian, entry COC(=O)C(=O)C(CC(=O)Nc1cc(Cl)ccc1Cl)C(=O)OC (stereo not drawn) , TGI value = > 100 µM

Here O=C(Nc1cccc(C(F)(F)F)c1)C(=O)C(C(=O)c1ccc(Cl)c(Cl)c1)C1OC(=O)c2ccccc21 (stereo not drawn) was tested on SK-OV-3 ovarian, and its TGI came to > 100 µM
